B1: Azoarcus group I ribozyme (parent)
chain: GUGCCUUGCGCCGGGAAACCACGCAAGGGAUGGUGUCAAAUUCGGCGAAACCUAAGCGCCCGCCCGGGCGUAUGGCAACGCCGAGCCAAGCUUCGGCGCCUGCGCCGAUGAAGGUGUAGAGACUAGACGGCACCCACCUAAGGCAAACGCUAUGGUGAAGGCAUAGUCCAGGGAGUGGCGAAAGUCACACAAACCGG

- Variants of: B1
- ASSAY REMARKS: reverse-splicing fitness (ratio to wild type); higher = more active; in vitro selection; Mg2+ level not given
Kindly supply the reported reverse-splicing fitness values for the records listed here.

Kindly note the recorded reverse-splicing fitness for A111G A120U C150U C169G U176A , which is 0.0102

Reported reverse-splicing fitness for C82U A111U A145C C169U was 0.0102

Field reverse-splicing fitness (entry A111G C150U C169U U176G ) reads 0.00703

// reverse-splicing fitness lookup, variant = A111C A145U C150G C169A , result: 0.00994

C82G A111G C150A C169A yielded reverse-splicing fitness of 0.0122

Reported reverse-splicing fitness ( C82G A111C A120C A145C C150G C169G U176A ) = 0.00984

Form: variant = C82G A111U A145U C169G ; reverse-splicing fitness = 0.00896

Entry A120U C150U C169G U176C , reverse-splicing fitness reported as 0.0569

Record A111G A120U C150G U176A . Reported reverse-splicing fitness: 0.0102

Entry under test: C82G A111G A120G A145U C150U C169A . Its reverse-splicing fitness was 0.0123

# reverse-splicing fitness of C82G A111C A120G C150G C169G U176G = 0.00467

# reverse-splicing fitness of C82A A111U A120C A145U = 0.0284

Reported reverse-splicing fitness of C82A A145G U176G : 0.113

In plain terms, C82A A120G A145C C150U C169A U176C has a documented reverse-splicing fitness of 0.00527

Notebook: C82U A111C A120G A145C C169A , reverse-splicing fitness read as 0.0073

What the record says about C82U A111C A120U C150G U176A : reverse-splicing fitness is 0.0035

reverse-splicing fitness measured on C82G A111C A120G A145U C150U C169A U176G = 0.006

The variant identified as C82G A111G A145U C150G U176G registered its reverse-splicing fitness at 0.00715

// reverse-splicing fitness lookup, variant = C82G A111U A120C A145C C150A C169A U176C , result: 0.0121

The value of reverse-splicing fitness measured for the variant C82A A111U A120C A145U C150U C169A U176C turned out to be 0.0168

The reported value for C82G A120C A145U C150A C169U U176G in terms of reverse-splicing fitness is 0.00492

The variant C82A A120U A145U C150G C169A U176C showed reverse-splicing fitness equal to 0.00214

Input C82U A111C A120G C169U . Output reverse-splicing fitness: 0.0077

Consider C82A A111G A120G A145G C150A U176G . Its measured reverse-splicing fitness is 0.00899

Measured reverse-splicing fitness, C82G A111U A120C A145U C150G C169A U176A : 0.0121

The recorded reverse-splicing fitness for entry C82A A120C A145C C150A C169G equals 0.0078

Kindly note the recorded reverse-splicing fitness for C82A A111U A145U C169U U176C , which is 0.0139

# reverse-splicing fitness of A111U A120U A145C C150G C169G U176A = 0.00251

Input C82G A111C A120C A145G U176G . Output reverse-splicing fitness: 0.00761

// reverse-splicing fitness lookup, variant = C82A A111G C150G C169G U176C , result: 0.00543

Looking up C82U A111C A120G A145C C169G U176C , I found its reverse-splicing fitness recorded as 0.0122

C82U A111C A120G A145U C150G C169G U176A yielded reverse-splicing fitness of 0.0063

Noted for C82U A145G C150U U176C : its reverse-splicing fitness reads 0.372

Briefly, reverse-splicing fitness measured for A111C A120C C150U C169U U176C : 0.0327

// reverse-splicing fitness value for C82G A111U A145C C150A C169U : 0.0105

Memo: A120G A145U C150U C169U U176C , reported reverse-splicing fitness: 0.162

Input C82U A111G A120U A145C C150G C169G U176G . Output reverse-splicing fitness: 0.00197

// reverse-splicing fitness value for C82A A111U A120U A145C C150G C169A : 0.00347

Briefly, reverse-splicing fitness measured for C82G A111C A120U A145G C150G C169G U176C : 0.00829

get_value(item= C82A A120C A145G C150G C169U , readout=reverse-splicing fitness) returns 0.0111

C82U A111U A120C A145U C150A C169A has a reported reverse-splicing fitness of 0.00772

Given item C82U A111U A120G A145U C150U U176C , the value recorded as its reverse-splicing fitness is 0.013

Summary for this variant, C82U A111C A120G A145U C150G C169U U176A : reverse-splicing fitness is 0.00881

Looking up C82U A111U A120U A145U C150A C169A U176C , I found its reverse-splicing fitness recorded as 0.00283

For record C82A A111C A120G A145U C169A U176C the listed reverse-splicing fitness is 0.0104

Record C82A A111C A145C C150G C169U U176C , field reverse-splicing fitness: 0.0112

Measured reverse-splicing fitness of C82U A111G A120G C150U C169A : 0.0105

The variant identified as C82U A111U A120U C150U C169A U176A registered its reverse-splicing fitness at 0.0038

What the record says about C82A A120U A145C : reverse-splicing fitness is 0.128

Sure, the documented reverse-splicing fitness for C82U A111C A120U A145C C150A C169G U176G is 0.00223

Per the record, C82G A111U A120G A145U C150G C169U has reverse-splicing fitness of 0.00825

Noted for C82G A120C A145C C150U C169U : its reverse-splicing fitness reads 0.0122

Item: C82A A111G A145C C150G U176A | reverse-splicing fitness: 0.00908

variant C82G A111C A120C C150G U176C , reverse-splicing fitness observed: 0.00847

Query C82U A120C A145C C150G C169U U176A yields reverse-splicing fitness of 0.00992

Reported reverse-splicing fitness of A111G A120C A145C C150G C169A U176C : 0.00524

Documented reverse-splicing fitness of C82G A111G A120U C169U U176G : 0.00158

Form: variant = C82G A111G A120U A145G C169G U176C ; reverse-splicing fitness = 0.00531

reverse-splicing fitness measured on C82U A111U A145U C150G C169U U176G = 0.00616

Documented reverse-splicing fitness of A120G A145C C150A C169A U176C : 0.0164

Per the record, C82U A120U C169G has reverse-splicing fitness of 0.00592

Sure, the documented reverse-splicing fitness for C82U A145C C150G C169G U176A is 0.00879

reverse-splicing fitness recorded for this variant, C82A A111C A120C A145C C150G C169U U176C , is 0.0112

Entry C82G A145G C150G C169G U176C , reverse-splicing fitness reported as 0.0146

Kindly note the recorded reverse-splicing fitness for A111U C169A U176C , which is 0.0214

Noted for C82G A111G A145C C150G U176G : its reverse-splicing fitness reads 0.00683

Looking up C82G A111G A120C C169G , I see its reverse-splicing fitness listed as 0.00841

Just so you know, measured reverse-splicing fitness for A145C C150G U176G came out at 0.114

Briefly, reverse-splicing fitness measured for C82U A111C A120U C150G C169A U176A : 0.00624

For reference, reported reverse-splicing fitness for C82G A111C A120G A145G C150A C169G U176C stands at 0.0267

Lookup result for C82U A120G C169A U176C ; measured reverse-splicing fitness: 0.0213

Sample A111U A120U C150A C169A U176A ; reverse-splicing fitness observed: 0.00475

Note to self: reverse-splicing fitness recorded for A111C A120C A145U U176A was 0.222

Record C82A A145U C150U C169G . Reported reverse-splicing fitness: 0.00961

Record C82A A120U A145G C169G U176C , field reverse-splicing fitness: 0.00373

Noted for C82G A111C A120U A145C C150U C169U U176C : its reverse-splicing fitness reads 0.00256

// recorded reverse-splicing fitness for C82U A120U A145U C150G : 0.0184

variant A111U A145C C150G C169U U176A , reverse-splicing fitness observed: 0.00903
